target: HIV-1 HXB2 envelope glycoprotein gp41 (N-trimer of the prehairpin intermediate) (HIV-1 strain HXB2, UniProt P04578 512-856); experiment: cell-based or functional assay
Bridges are numbered along the chain shown (N, C = ends). Where no end group is shown, it is not given here. [ ]: non-standard residue; d: D form.
readout.kind: IC50, HXB2 pseudovirion entry (nM)
Number only, in nM; omit the unit.

Some solved cases for reference:
What the record says about [dC][dD][dY][dP][dE][dW][dQ][dW][dL][dC][dE][dL]GK (disulfide 1-10 (inferred); not fully specified (residue 14); also: homotrimer on trimethylolethane-triNHS ester scaffold) [PEG5-ΔHP-PIE12-trimer] : IC50, HXB2 pseudovirion entry is 380

What the record says about Ac-[dH][dP][dC][dD][dY][dP][dE][dW][dQ][dW][dL][dC][dE][dL]GK-NH2 (disulfide 3-12 (inferred); not fully specified (residue 16)) [Chol-PEG2-PIE12 (monomer)] : IC50, HXB2 pseudovirion entry is 69

Could you now look at the following binder, please?
What the record says about Ac-[dH][dP][dC][dD][dY][dP][dE][dW][dQ][dW][dL][dC][dE][dL]GK-NH2 (disulfide 3-12 (inferred); not fully specified (residue 16)) [Chol-PEG24-PIE12 (monomer)] : IC50, HXB2 pseudovirion entry is 0.64

Taken from patent US20140323392A1.
